Items are presented alongside their recorded pIC50.
# target-under-test: Interleukin-23 receptor (Homo sapiens)
# Sequence (Q5VWK5 whole entry): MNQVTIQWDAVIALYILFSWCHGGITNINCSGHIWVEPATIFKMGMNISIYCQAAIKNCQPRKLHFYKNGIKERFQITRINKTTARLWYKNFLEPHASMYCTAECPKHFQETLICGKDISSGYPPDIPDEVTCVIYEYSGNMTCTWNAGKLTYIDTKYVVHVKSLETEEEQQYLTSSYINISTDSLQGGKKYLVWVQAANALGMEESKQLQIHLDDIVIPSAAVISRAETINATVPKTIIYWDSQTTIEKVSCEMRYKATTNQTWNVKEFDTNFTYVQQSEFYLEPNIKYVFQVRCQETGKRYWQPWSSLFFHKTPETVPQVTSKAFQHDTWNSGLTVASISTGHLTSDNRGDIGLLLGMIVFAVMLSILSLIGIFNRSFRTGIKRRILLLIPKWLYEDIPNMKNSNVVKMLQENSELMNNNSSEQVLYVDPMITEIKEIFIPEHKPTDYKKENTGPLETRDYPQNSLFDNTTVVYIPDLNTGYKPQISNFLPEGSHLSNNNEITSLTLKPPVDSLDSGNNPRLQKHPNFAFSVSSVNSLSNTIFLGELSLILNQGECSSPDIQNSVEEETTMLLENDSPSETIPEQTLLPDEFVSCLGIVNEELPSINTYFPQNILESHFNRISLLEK
# protocol-description: Inhibition of interleukin-23 binding to human interleukin-23 receptor incubated for 2 hrs by competitive binding ELISA
pIC50: −log10 of the molar value.

Query: Which pIC50 is reported for this molecule? CC(=O)N[C@@H](CS)C(=O)N[C@@H](C)C(=O)N[C@@H](CC(=O)O)C(=O)N[C@@H](Cc1c[nH]c2ccccc12)C(=O)N[C@H](C(=O)N[C@@H](CS)C(=O)N[C@@H](Cc1ccc(O)cc1)C(=O)N[C@@H](Cc1cc(F)cc(F)c1)C(=O)N[C@@H](CCCN)C(=O)N[C@@H](CN)C(=O)N[C@@H](Cc1ccccc1)C(=O)NCC(=O)NCCOCC(=O)N[C@H](CCCCN)C(N)=O)C(C)C
Reply: 5.22

Query: What value of measured pIC50 is listed for CC(=O)N[C@@H](CS)C(=O)N[C@@H](C)C(=O)N[C@@H](CC(=O)O)C(=O)N[C@@H](Cc1c[nH]c2ccccc12)C(=O)N[C@H](C(=O)N[C@@H](CS)C(=O)N[C@@H](Cc1ccc(O)cc1)C(=O)N[C@@H](Cc1c[nH]c2ccccc12)C(=O)N[C@@H](Cc1cnc[nH]1)C(=O)N[C@H](C(=O)N[C@@H](Cc1ccccc1)C(=O)NCC(=O)NCCCC(=O)N[C@H](CCCCN)C(=O)O)[C@@H](C)O)C(C)C ?
Reply: > 6.30

Query: Consider the molecule shown here: CC(=O)N[C@@H](CS)C(=O)N[C@@H](C)C(=O)N[C@@H](CC(=O)O)C(=O)N[C@@H](Cc1c[nH]c2ccccc12)C(=O)N[C@H](C(=O)N[C@@H](CS)C(=O)N[C@@H](Cc1ccc(O)cc1)C(=O)N[C@@H](Cc1cccc2ccccc12)C(=O)N[C@@H](Cc1cnc[nH]1)C(=O)NC(C)(C)C(=O)N[C@H](Cc1ccccc1)C(=O)NCC(N)=O)C(C)C What is its recorded pIC50?
Reply: < 6.00

###

Each entry below lists one item and its recorded half-life at 20 µM value.
# protocol-description: Half life in simulated intestinal fluid at 20 uM by LC-MS/MS analysis
# Assay type: ADME

CC(=O)NCCCC[C@H](NC(=O)[C@](C)(CCCN)NC(=O)[C@H](Cc1ccc2ccccc2c1)NC(=O)[C@H](Cc1ccc(OCCN)cc1)NC(=O)[C@@H]1CSCC[C@H](NC(C)=O)C(=O)N[C@@H](CCC(N)=O)C(=O)N[C@@H]([C@@H](C)O)C(=O)N[C@@H](Cc2c[nH]c3ccccc23)C(=O)N[C@@H](CCC(N)=O)C(=O)N1)C(=O)N[C@@H](CC(N)=O)C(=O)NCC(N)=O ... 3 to 6 h
COc1ccc(C[C@H](NC(=O)[C@@H](NC(=O)[C@H](CCC(N)=O)NC(=O)[C@H](Cc2c[nH]c3ccccc23)NC(=O)[C@@H](NC(=O)[C@H](CCC(N)=O)NC(=O)[C@@H](NC(=O)CCC(=O)O)C(C)(C)S)[C@@H](C)O)C(C)(C)S)C(=O)N[C@@H](Cc2ccc3ccccc3c2)C(=O)N[C@@](C)(CCCCN)C(=O)N[C@@H](CCCCNC(C)=O)C(=O)N[C@@H](CC(N)=O)C(=O)NCC(N)=O)cc1 ... > 6 h

Now let's try a different one.
Query: Fill blank: measured half-life at 20 µM of the compound COc1ccc(C[C@H](NC(=O)[C@@H](NC(=O)[C@H](CCC(N)=O)NC(=O)[C@H](Cc2c[nH]c3ccccc23)NC(=O)[C@@H](NC(=O)[C@H](CCC(N)=O)NC(=O)[C@@H](NC(C)=O)C(C)(C)S)[C@@H](C)O)C(C)(C)S)C(=O)N[C@@H](Cc2ccc3ccccc3c2)C(=O)N[C@@](C)(CCCCN)C(=O)N[C@@H](CCC(=O)O)C(=O)N[C@@H](CC(N)=O)C(=O)NCC(N)=O)cc1 is ____.
Reply: 3 to 6 h
